Experiment: Components of the Cytosolic LPS Sensing Pathway: Gene Identification via Genome-wide siRNA Screen;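 further: robust z of the log signal after scaling to non-targeting control siRNA wells of the plate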
Conditions: RAW264.7 macrophages, IL-1a HTRF, actives lie on both sides, screened at 100 nM (by protocol), cells primed 5 h with Pam3CSK4 first
Protocol: Non-canonical inflammasome activation by cytosolic LPS is a critical component of the host response to Gram-negative bacterial infection, however we lack a comprehensive understanding of the cellular processes that control this pathway. […] Lipofectamine RNAiMAX Transfection Reagent ([…]; Invitrogen) was added in […] serum-free, antibiotic-free media to plate wells using a Thermo Scientific Matrix WellMate and Microplate Stacker. […] The plates were read on an EnVision plate reader (PerkinElmer). […]
Among all 53,000 sequences or so, about 3,700 (7%) were called active. This is one part of a sample in which actives are shown more often than they occur.
measured-property: z-score
Answer using only a numeral; do not append any unit.

Consider the worked cases shown below.
sequence-input: GCACCAAGUCGUAUAAACATT against Sh3glb1
z-score: -0.391

sequence-input: CCGUGACGAGCUUGUGGUUTT against Ap3b2
z-score: 0.788

sequence-input: CGUAAGUGGACGACGGUUCTT against Kcnd3
z-score: 0.106

sequence-input: GGAGAUCUCCUCAGCCACATT against Gemin4
z-score: -2.14

sequence-input: GGACUUGCCUUGAUCGCUATT against Mars2
z-score: 0.853

Turning to the following sequence.
What measured z-score goes with GGGAAACAUCUUCCUAUCCTT against Serpina12 ?
-0.958

----------
experiment: Components of the Cytosolic LPS Sensing Pathway: Gene Identification via Genome-wide siRNA Screen; settings: RAW264.7 macrophages, IL-1a HTRF, actives lie on both sides, screened at 100 nM (by protocol), cells primed 5 h with Pam3CSK4 first;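 further: robust z of the log signal after scaling to non-targeting control siRNA wells of the plate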
Screen size: about 53,000 sequences; about 3,700 (7%) were called active.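 How the source made its calls: active means gene knockdowns whose robust z-score for IL-1 alpha signal is at least 2 or at most -2, so actives lie on both sides; inactive means the rest.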 Many of the other results were omitted from the sample, so actives are more common in it than they were.
Select the correct class. Options are yes for active, no for inactive and nothing else.

Solved entries:
sequence-input: GGUCAUGGUCUGAGAUUCUTT against Txnl4a
answer-label: yes
--
sequence-input: CCUGUGAAAGAUGCUUAUATT against Capn7
answer-label: no
--
sequence-input: GGUCUCAUAGAGUGUUACUTT against Anapc7
answer-label: yes
--
sequence-input: CCCUUAUUGCUAGACCUAGTT against Map3k11
answer-label: no
--
sequence-input: GAUCAUCACAGAGGUCCAGTT against Fabp6
answer-label: no
--
sequence-input: GGAGGAGAAUGCCACAACUTT against Cd320
answer-label: no
--
sequence-input: GGAGAUUUUCAAGAGACUCTT against 0610010F05Rik
answer-label: no
--
sequence-input: GGUAUGUUUUAUCUUGACATT against Olfr851
answer-label: no
--
sequence-input: GAGUGUUUCAGAUUCUUCATT against Klra8
answer-label: no
--
sequence-input: GGCUUUCUUCAGUUUUGUCTT against Slc33a1
answer-label: no

What outcome does the record of this test show for GGAGCUGAAGAUCAAGGAGTT against Pkn3 ?
no

Next sequence: GGCAGAGCUCAAAAAGAAATT against Ankrd1
no

----------
assay: Components of the Cytosolic LPS Sensing Pathway: Gene Identification via Genome-wide siRNA Screen; details: RAW264.7 macrophages, IL-1a HTRF, actives lie on both sides, screened at 100 nM (by protocol), cells primed 5 h with Pam3CSK4 first;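 further: robust z of the log signal after scaling to non-targeting control siRNA wells of the plate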
Hit rate of the full screen: of about 53,000 sequences, about 3,700 (7%) were called active. The entries come from a sample that favours actives as a whole.
measured-property: z-score

Consider the worked cases shown below.
sequence-input: GGACAAAAGGCUGAGCAUCTT against Flt1
z-score: -0.235 (inactive)
//
sequence-input: GGAAAUUUCAGUCGAACAGTT against Arhgap31
z-score: 0.333 (inactive)
//
sequence-input: CCAAUUGCUCUCCAUGAAATT against Coro1c
z-score: 0.331 (inactive)
//
sequence-input: GGAGUUGUUGUGCUUUUAATT against Tmem45a
z-score: 3.02 (active)
//
sequence-input: CCGUUUACGGCCACUAACUTT against Phkg2
z-score: 3.68 (active)

What measured z-score goes with GUAUGUUCAUAUGGUUUUCTT against Swi5 ?
2.33 (active)

Next sequence: GCUUAUAACAGUUGAUGAGTT against Ndufs4
-0.54 (inactive)

Next sequence: CGAAGGCUUUUGAAUUCAATT against Pcdh17
0.41 (inactive)

Next sequence: CGGUACAUCAUUGCUGUCATT against Slc17a8
-2.22 (active)

Next sequence: GGAACAAAUCCUGGAACUGTT against Zfp449
1.15 (inactive)

Next sequence: GGAGAGGAGACACAUCAGUTT against Gnpat
-0.067 (inactive)

Next sequence: GGGAAGAAAUCCAAGAAGATT against Cnpy3
-0.836 (inactive)

Next sequence: GCACUUUACGAGUAUGUAATT against Gnl1
-1.74 (inactive)
